Target: EGFR (Homo sapiens, UniProt P00533)
Construct: Kinases are expressed as either kinase domains or full length constructs; made in house
Sequence (P00533 25-1210, species assumed): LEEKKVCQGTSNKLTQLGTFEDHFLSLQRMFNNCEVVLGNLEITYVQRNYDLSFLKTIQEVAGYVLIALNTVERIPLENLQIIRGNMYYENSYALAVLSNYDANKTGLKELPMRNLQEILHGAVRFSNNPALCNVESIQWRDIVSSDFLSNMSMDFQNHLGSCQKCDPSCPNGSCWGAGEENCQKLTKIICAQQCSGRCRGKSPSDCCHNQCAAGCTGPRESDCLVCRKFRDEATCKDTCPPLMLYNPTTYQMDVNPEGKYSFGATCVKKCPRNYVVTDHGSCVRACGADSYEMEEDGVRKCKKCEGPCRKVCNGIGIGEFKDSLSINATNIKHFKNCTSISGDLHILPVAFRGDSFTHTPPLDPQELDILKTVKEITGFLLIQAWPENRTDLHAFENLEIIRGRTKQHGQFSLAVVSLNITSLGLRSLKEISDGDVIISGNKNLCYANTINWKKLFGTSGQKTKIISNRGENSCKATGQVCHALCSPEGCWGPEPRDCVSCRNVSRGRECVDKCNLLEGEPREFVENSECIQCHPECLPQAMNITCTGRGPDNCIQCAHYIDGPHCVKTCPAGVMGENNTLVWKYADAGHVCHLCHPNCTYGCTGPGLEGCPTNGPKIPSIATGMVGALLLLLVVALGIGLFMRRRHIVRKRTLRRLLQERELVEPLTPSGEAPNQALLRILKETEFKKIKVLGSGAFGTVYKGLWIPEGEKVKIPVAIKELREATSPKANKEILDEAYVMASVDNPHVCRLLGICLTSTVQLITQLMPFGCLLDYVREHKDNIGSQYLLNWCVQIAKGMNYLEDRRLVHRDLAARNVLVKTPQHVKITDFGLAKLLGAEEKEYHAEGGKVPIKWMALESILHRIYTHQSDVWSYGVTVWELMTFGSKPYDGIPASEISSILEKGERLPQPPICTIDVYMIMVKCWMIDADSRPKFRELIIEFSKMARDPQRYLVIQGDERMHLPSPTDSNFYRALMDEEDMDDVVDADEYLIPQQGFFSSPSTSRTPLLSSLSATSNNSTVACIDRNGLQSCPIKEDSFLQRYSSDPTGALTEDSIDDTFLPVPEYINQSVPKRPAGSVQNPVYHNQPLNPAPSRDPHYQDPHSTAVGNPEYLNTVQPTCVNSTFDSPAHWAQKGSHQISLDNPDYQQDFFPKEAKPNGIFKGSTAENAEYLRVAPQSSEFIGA
Assay: Kinase inhibition assay (33P transfer), EGFR
Format: biochemical
Conditions: Table 2, kinase inhibition class; read-out: EGFR-1
measuredQuantity: IC50

Q: Return IC50 measured with EGFR (Homo sapiens, UniProt P00533) given this compound: COc1cc(Nc2ncnc(Nc3ccc(Br)cc3)n2)cc(OC)c1OC
Ans: 0.925 to 5.55 µM

Q: Return IC50 measured with EGFR (Homo sapiens, UniProt P00533) given this compound: COc1cc(Nc2ncnc(Nc3[nH]ncc3-c3cccc(Cl)c3)n2)cc(OC)c1OC
Ans: > 9.91 µM

Q: Return IC50 measured with EGFR (Homo sapiens, UniProt P00533) given this compound: COc1cc(Nc2ncnc(-n3ccnc3)n2)cc(OC)c1OC
Ans: > 13.7 µM

Q: Return IC50 measured with EGFR (Homo sapiens, UniProt P00533) given this compound: COc1cc(Nc2ncnc(-c3ccc(N4CCOCC4)nc3)n2)cc(OC)c1OC
Ans: > 10.6 µM

Q: Return IC50 measured with EGFR (Homo sapiens, UniProt P00533) given this compound: COc1cc(Nc2ncnc(-c3ccc(N4CCNCC4)nc3)n2)cc(OC)c1OC
Ans: 8.26 to 10.6 µM

Q: Return IC50 measured with EGFR (Homo sapiens, UniProt P00533) given this compound: COc1cc(Nc2ncnc(-n3c(NCc4cccnc4)nc4ccccc43)n2)cc(OC)c1OC
Ans: > 9.29 µM

Q: Return IC50 measured with EGFR (Homo sapiens, UniProt P00533) given this compound: Nc1nc2ccccc2n1-c1ncnc(Nc2ccc(OC(F)(F)F)cc2)n1
Ans: 1.03 to 6.2 µM

Q: Return IC50 measured with EGFR (Homo sapiens, UniProt P00533) given this compound: COC(=O)c1cc(OC)c(OC)cc1Nc1ncnc(-n2c(N)nc3ccccc32)n1
Ans: > 10.7 µM

Q: Return IC50 measured with EGFR (Homo sapiens, UniProt P00533) given this compound: COc1ccc(CNc2nc3ccccc3n2-c2ncnc(Nc3cc(OC)c(OC)c(OC)c3)n2)cc1
Ans: > 8.76 µM

Q: Return IC50 measured with EGFR (Homo sapiens, UniProt P00533) given this compound: Clc1cccc(Nc2ncnc(-c3cccs3)n2)c1
Ans: > 15.6 µM

Q: Return IC50 measured with EGFR (Homo sapiens, UniProt P00533) given this compound: CCc1ccc(Nc2nc3ccccc3n2-c2ncnc(Nc3cc(OC)c(OC)c(OC)c3)n2)cc1
Ans: < 0.804 µM

Q: Return IC50 measured with EGFR (Homo sapiens, UniProt P00533) given this compound: c1ccc(Cn2ncc3cc(Nc4ncnc(NCC5CCCCC5)n4)ccc32)cc1
Ans: > 10.9 µM

Q: Return IC50 measured with EGFR (Homo sapiens, UniProt P00533) given this compound: COc1ccc(Nc2ncnc(N(C)c3cccc(Cl)c3)n2)cc1OC
Ans: < 1.08 µM

Q: Return IC50 measured with EGFR (Homo sapiens, UniProt P00533) given this compound: COc1cc(Nc2ncnc(N3CCc4ccccc43)n2)cc(OC)c1OC
Ans: > 11.9 µM

Q: Return IC50 measured with EGFR (Homo sapiens, UniProt P00533) given this compound: CN(c1cccc(Cl)c1)c1ncnc(Nc2cccc(CC(=O)O)c2)n1
Ans: < 1.08 µM

Q: Return IC50 measured with EGFR (Homo sapiens, UniProt P00533) given this compound: Clc1ccccc1Nc1ncnc(-n2cccc2)n1
Ans: > 16.6 µM

Q: Return IC50 measured with EGFR (Homo sapiens, UniProt P00533) given this compound: COc1cc(Nc2ncnc(Nc3ccc(O)cc3)n2)cc(OC)c1OC
Ans: 1.08 to 6.5 µM

Q: Return IC50 measured with EGFR (Homo sapiens, UniProt P00533) given this compound: COc1cc(Nc2ncnc(-n3c(NCc4ccncc4)nc4ccccc43)n2)cc(OC)c1OC
Ans: > 9.29 µM

Q: Return IC50 measured with EGFR (Homo sapiens, UniProt P00533) given this compound: COc1ccc(Nc2ncnc(Nc3ccc(F)c(Cl)c3)n2)cc1OC
Ans: 1.06 to 6.39 µM

Q: Return IC50 measured with EGFR (Homo sapiens, UniProt P00533) given this compound: COc1ccc(CNc2ncnc(Nc3cc(OC)c(OC)c(OC)c3)n2)cc1
Ans: > 11.3 µM

Q: Return IC50 measured with EGFR (Homo sapiens, UniProt P00533) given this compound: CCc1cccc(Nc2ncnc(-n3c(N)nc4ccccc43)n2)c1
Ans: 1.21 to 7.24 µM

Q: Return IC50 measured with EGFR (Homo sapiens, UniProt P00533) given this compound: COc1cc(Nc2ncnc(-n3c(NCc4ccccn4)nc4ccccc43)n2)cc(OC)c1OCCn1ccnn1
Ans: > 7.96 µM

Q: Return IC50 measured with EGFR (Homo sapiens, UniProt P00533) given this compound: COc1cc(Nc2ncnc(-n3cnc4ccccc43)n2)cc(OC)c1OC
Ans: 9.25 to 11.9 µM

Q: Return IC50 measured with EGFR (Homo sapiens, UniProt P00533) given this compound: COc1cc(Nc2ncnc(N3CCN(c4ncccn4)CC3)n2)cc(OC)c1OC
Ans: > 10.6 µM

Q: Return IC50 measured with EGFR (Homo sapiens, UniProt P00533) given this compound: COc1cc(Nc2ncnc(-n3c(N[C@@H](C)c4ccccc4)nc4ccccc43)n2)cc(OC)c1OC
Ans: 4.82 to 7.03 µM

Q: Return IC50 measured with EGFR (Homo sapiens, UniProt P00533) given this compound: COc1ccc(Nc2nc3ccccc3n2-c2ncnc(Nc3cc(OC)c(OC)c(OC)c3)n2)cc1
Ans: > 9.01 µM

Q: Return IC50 measured with EGFR (Homo sapiens, UniProt P00533) given this compound: NC(=O)c1cccc(Nc2ncnc(-n3c(N)nc4ccccc43)n2)c1
Ans: > 13 µM

Q: Return IC50 measured with EGFR (Homo sapiens, UniProt P00533) given this compound: CCOC(=O)C(Nc1nc2ccccc2n1-c1ncnc(Nc2cc(OC)c(OC)c(OC)c2)n1)c1ccccc1 (stereo not shown)
Ans: > 8.1 µM

Q: Return IC50 measured with EGFR (Homo sapiens, UniProt P00533) given this compound: COc1cc(Nc2ncnc(Nc3nc4ccccc4s3)n2)cc(OC)c1OC
Ans: > 11 µM

Q: Return IC50 measured with EGFR (Homo sapiens, UniProt P00533) given this compound: COc1cc(Nc2ncnc(N3CCCC4CCCCC43)n2)cc(OC)c1OC (stereo not shown)
Ans: < 1 µM

Q: Return IC50 measured with EGFR (Homo sapiens, UniProt P00533) given this compound: COc1cc(Nc2ncnc(-n3c(NCCCc4ccccc4)nc4ccccc43)n2)cc(OC)c1OC
Ans: > 8.8 µM
